# System: TrkA
# experimental.protocol: Biotinylated peptide pull down of TrkA
# Assay type: binding
# cond: TrkA pull downs, FIG. 15F
# Description: For peptide pull down assays, the biotinylated c29 or LC1 control peptides were incubated with protein A-sepharose beads or Dynabeads MyOne Streptavidin T1 (Invitrogen) overnight at 4° C. Cell lysates were then added to the peptide-protein A-sepharose complex or Dynabeads MyOne Streptavidin T1 and incubated for 3 hours at 4° C. Peptide-receptor complexes were washed extensively with RIPA lysis buffer and eluted by boiling in Laemmli sample buffer. […]

- substance: "(22-29): truncated peptide fragment of c29, residues 22-29 (PPPEGEKL)"
  TrkA binding of biotinylated fragments: "clearly bind TrkA"
- substance: "KRWNSC (c1-6 - Fragment of p75ICD) [(1-6)]"
  TrkA binding of biotinylated fragments: "clearly bind TrkA"
- substance: "SRPVNQTPPPEGEKL (c15-29 - Fragment of p75ICD) [(15-29)]"
  TrkA binding of biotinylated fragments: "clearly bind TrkA"
- substance: "KRWNSCKQNKQGAN (c1-14 - Fragment of p75ICD) [(1-14)]"
  TrkA binding of biotinylated fragments: "clearly bind TrkA"
